experimental.target: T1, human CD3 expressed on cells (human, UniProt P07766 23-207; P04234 22-171; P09693 23-182)
T1 construct: whole, on cells; CD3 complex on Jurkat cells and on human primary T cells
T1 sequence (P07766 23-207, chain 1 of 3): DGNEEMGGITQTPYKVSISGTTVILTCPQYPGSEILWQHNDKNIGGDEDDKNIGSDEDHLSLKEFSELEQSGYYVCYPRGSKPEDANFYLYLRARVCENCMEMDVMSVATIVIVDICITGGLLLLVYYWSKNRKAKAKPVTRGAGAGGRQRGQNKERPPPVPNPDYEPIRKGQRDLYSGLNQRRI
T1 sequence (P04234 22-171, chain 2 of 3): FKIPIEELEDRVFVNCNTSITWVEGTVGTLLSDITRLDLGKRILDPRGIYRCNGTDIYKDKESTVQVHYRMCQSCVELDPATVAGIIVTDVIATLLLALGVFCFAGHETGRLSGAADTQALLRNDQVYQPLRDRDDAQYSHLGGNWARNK
T1 sequence (P09693 23-182, chain 3 of 3): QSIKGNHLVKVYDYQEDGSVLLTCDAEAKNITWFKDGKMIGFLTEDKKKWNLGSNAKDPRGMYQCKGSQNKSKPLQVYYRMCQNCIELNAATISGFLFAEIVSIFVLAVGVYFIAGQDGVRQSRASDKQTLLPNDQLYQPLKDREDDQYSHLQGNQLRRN
assay.procedure: flow cytometry, 25 nM
measured.metric: Jurkat Cell Binding (FOI)
Give the number; FOI is assumed, so skip it.

Worked examples follow.
binder	Jurkat Cell Binding (FOI)
mAb 119 (antibody, V domains shown) VH: EVQLVESGGGLVQPGRSLRLSCAASGFTFDDYTMHWVRQAPGKGLEWVSGISWNSGSIGYADSVKGRFTISRDNAKNSLYLQMNSLRAEDTALYYCSKDSSGYGYYLNYSLDVWGKGTTVTVSS VL: EIVMTQSPATLSVSPGERATLSCRASQSVSNLAWYQQKPGQAPRLLIYGASTRATGIPARFSGSGSGTEFTLTISSLQSEDFAVYYCQQYNNWPHFGQGTRLQIK	90.4
mAb 102 (antibody, V domains shown) VH: QVQLVESGGGVVQPGRSLRLSCAASGFSFRSYGMHWVRQAPGKGLEWVSVISYDGGNKYYADSVKGRFTISRDNSKNTLFLQMKSLRAEDTALYYCAKGGGTYWRGLFEYWGQGTLVTVSS VL: DIQLTQSPSFLSASVGDRVTITCRASQGISSYLAWYQKKPGKAPKLLIYAASTLHSGVPSRFSGGGSGTAFTLTISSLQPEDFATYYCQQLNNYPFTFGPGTKVDIK	101
mAb 127 (antibody, V domains shown) VH: EVQLVESGGGLVKTGGSHRLSCVASGFSFKKAWMNWVRQAPGKGLEWVGRIKRNSDGGTTDYAAPVKGRFILSRDDSKNTLYLQMNSLKTEDTAVYYCTTLDSSSWYVGYYYMDVWGKGTTVTVSS VL: DIQMTQSPSSVSASVGDRVTITCRASQDINNWLAWYQQKPGKAPKILIYTASNLQSGVPSRFSGSGSGTDFTLTISTLQPEDFATYFCQQAHGLPITFGQGTRLEIK	155
mAb 72 (antibody, V domains shown) VH: EVQLVDSGGGLVQPGGSLRLSCAASGFTFSSYWMSWVRQAPGKGLEWVANIKQDGSEKYYVDSVKGRFTISRDNVKNSLSLEMNSLRAEDTALYYCARDESSSWYWYFDLWGRGTLVTVSS VL: DIQMTQSPSTLSASVGDRVTITCRASQSISKWLAWYQQKPGKAPKLLIYKASSLENGVPSRFSGSGSGTEFTLTISSLQPDDFATYYCQQYSSYSRTFGQGTKVEIK	98.7

[in] Report measured Jurkat Cell Binding (FOI); entry is mAb 133 (antibody, V domains shown) VH: EVQLVESGGGLVKTGGSLRLSCVASGFSFKKAWMSWVRQAPGKGLEWVGRIKRNTDGGTADYAAPVKGRFTLSRDDSKKTLFLQMNSLKTEDSAVYYCVTLDSSSYYVGYYYMDVWGKGTTVTVSS VL: DIQMTQSPSSVSASVGDRVSITCRASQDINNWLAWYQQKPGKAPKLLIYTASSLQSGVPSRFSGSGSGTDFTLTIGSLQPEDFATYYCQQAHSLPITFGQGTRLEIK
[out] 161

[in] Report measured Jurkat Cell Binding (FOI); entry is mAb 141 (antibody, V domains shown) VH: QVQLVQSGAEVKKPGASVKVSCKASGYTFTSYYIHWVRQAPGQGLDWMGIINPSGGITGYAQKLQGRVTMTRDTSTTTVYMELSSLRSDDTAVYYCARGVRGNYYYYYMDVWGKGTTVTVSS VL: EIVLTQSPDFQSVTPKEKVTITCRASQSIGSKLHWYQQKPDQSPKLLIKYASQSFSGVPSRFSGSGSGTDFNLTINSLEAEDAATFYCHQSSGLPYTFGQGTKLEIK
[out] 183

[in] Report measured Jurkat Cell Binding (FOI); entry is mAb 157 (antibody, V domains shown) VH: EVQLVESGGGLVKTGGSLRLSCVASGFSFKKAWMNWVRQAPGKGLEWVGRIKRTADGGATDYAAPVKGRFTLSRDDSKNTLYLQMNSLKTEDTAVYYCTTLDSSSWYVGYYYMDVWGKGTTVTVSS VL: DIHMTQAPSSVSASVGDRVTFTCRASQDINNWLAWYQQKPGKAPKLLIYTASSLQSGVPSRFSGSGSGTDFTLTISSLQPEDFATYYCQQAHSLPITFGQGTRLGIK
[out] 163

[in] Report measured Jurkat Cell Binding (FOI); entry is mAb 50 (antibody, V domains shown) VH: QAQLVQSGSELKKPGASVKVSCKASGYTFTRHAMNWVRQAPGQGLEWMGWINTNTGNPTYAQGFTGRFVFSLDTSVTTAYLQISSLKAEDTAVYYCAREGDYDFWSGFFNFDYWGQGTLVTVSS VL: DIQMTQSPSSLSASVGDRVTITCRASQGIRNDLGWFQQKPGKAPTRLIYAASSLQSGVPSRFSGSGSGAEFTLTISSLQPEDFATYYCLQHNSYPRTFGQGTKVEIK
[out] 92.5

[in] Report measured Jurkat Cell Binding (FOI); entry is mAb 55 (antibody, V domains shown) VH: QVQLEQSGAEVKKPGASVKVSCKTSGYIFANYDINWVRQATGQGLEWMGWMNPKSGKAGYAQKFQGRVTMTSNTPINTAYMELSSLRSEDTAVYYCAREGHYDFWRGFYSFDYWGQGILVTVSS VL: DIQMTQSPSSLSASVGDRVTITCRASQGIRNDLGWYQQKPGKAPKRLIYTASSLQSGVPSRFSGSGSGTEFTLTISSLQPEDFATYFCLQYNTYPYTFGQGTKLEIK
[out] 151

[in] Report measured Jurkat Cell Binding (FOI); entry is mAb 98 (antibody, V domains shown) VH: QVHLVESGGDVVQPGRSLRLSCSASGFTFSGYGMHWVRQAPGKGLEWVALIYFDGRNKYYADSVKGRFTISRDNSKNTLYLQMNSLRAEDTAVYYCARGGGYNWFDPWGQGTLVTVSS VL: DIQMTQSPSSLSASVGDRVTITCRASQSINNYLNWYQQKPGKAPKLLIYLASSLQSGVPSRFSGSGSGTDFTLTISSLQPEDLATYYCQLSYSSPFTFGPGTKVDVK
[out] 181
